The following compounds are listed with their measured relative viability values.
- System: NCI-H441
- TEST DETAILS: relative viability (nuclei count vs DMSO), 5 days (fraction); higher = more cells survive
- MEASUREMENT CONTEXT: first compound 0.01 µM

Exercise: Requested field: relative viability. Item: CCN(CC)CCCCNc1ncc2cc(-c3cc(OC)cc(OC)c3)c(NC(=O)NC(C)(C)C)nc2n1 + COc1cccc2cc(-c3nc([C@H]4CC[C@H](C(=O)O)CC4)n4ncnc(N)c34)[nH]c12 [OSI-027] (partner 0.5 µM)
Key: 0.56

Exercise: Next compound: O=c1cc(N2CCOCC2)oc2c(-c3cccc4c3sc3ccccc34)cccc12 + CS(=O)(=O)N1CCN(Cc2cc3nc(-c4cccc5[nH]ncc45)nc(N4CCOCC4)c3s2)CC1 [Pictilisib] (partner 1 µM)
Key: 0.561

Where do these numbers come from? They come from the supplement of paper PMC10307832.
